TARGET DESC: Prothrombin (Bos taurus)
PROTOCOL NOTES: Concentration at which the clotting time was prolonged by twice that of the control by inhibiting thrombin
Assay type: functional
CONDITION SUMMARY: read-out: I50
PROPERTY NAME: pIC50
Scale: pIC50 equals -log10([C]), with [C] in mol/L.

CCCCN(CC(=O)O)C(=O)C(CCCN=C(N)N)NS(=O)(=O)c1cccc2c1CCCC2 (centres undefined)    4.70

// query Give pIC50 for the following compound: COc1cc2ccc(S(=O)(=O)NC(CCCN=C(N)N)C(=O)N3CCc4ccccc4C3C(=O)O)cc2cc1OC (centres undefined)
// result 6.15

// query Give pIC50 for the following compound: COCCN(CC(=O)O)C(=O)C(CCCN=C(N)N)NS(=O)(=O)c1ccc2oc3ccccc3c2c1 (centres undefined)
// result 6.46

// query Give pIC50 for the following compound: COc1cc2ccc(S(=O)(=O)NC(CCCN=C(N)N)C(=O)N3CCC(c4ccccc4)CC3C(=O)O)cc2cc1OC (centres undefined)
// result 4.92

###

TARGET DESC: Prothrombin (Bos taurus)
PROTOCOL NOTES: Concentration at which the clotting time was prolonged by twice that of the control by inhibiting thrombin
Assay type: functional
CONDITION SUMMARY: read-out: I50
Rule: IC50 below 400 nM gives yes, anything at or above gives no.

As a guide, the following entries are already answered.
COCCN(CC(=O)O)C(=O)C(CCCN=C(N)N)NS(=O)(=O)c1cccc2c1CCCC2 (stereo not drawn)    no
COCCN(CC(=O)O)C(=O)C(CCCN=C(N)N)NS(=O)(=O)c1ccc2c(c1)Sc1ccccc1O2 (stereo not drawn)    yes
CC1CCN(C(=O)C(CCCN=C(N)N)NS(=O)(=O)c2cccc3c2oc2ccccc23)C(C(=O)O)C1 (stereo not drawn)    yes
COCCN(CC(=O)O)C(=O)C(CCCN=C(N)N)NS(=O)(=O)c1ccc2sc3ccccc3c2c1 (stereo not drawn)    no
CCC1CCN(C(=O)C(CCCN=C(N)N)NS(=O)(=O)c2ccc3cc(OC)c(OC)cc3c2)C(C(=O)O)C1 (stereo not drawn)    yes

// query Identify whether the compound CCCCCN(CC(=O)O)C(=O)C(CCCN=C(N)N)NS(=O)(=O)c1cccc2c1CCCC2 (stereo not drawn) records IC50 below 400 nM.
// result no

// query Identify whether the compound CC1CCN(C(=O)C(CCCN=C(N)N)NS(=O)(=O)c2ccc3oc4ccccc4c3c2)C(C(=O)O)C1 (stereo not drawn) records IC50 below 400 nM.
// result yes

###

TARGET DESC: Prothrombin (Bos taurus)
PROTOCOL NOTES: Concentration at which the clotting time was prolonged by twice that of the control by inhibiting thrombin
CONDITION SUMMARY: read-out: I50
Rule: IC50 below 1000 nM gives 1 (yes), anything at or above gives 0 (no).

COc1cc2ccc(S(=O)(=O)NC(CCCN=C(N)N)C(=O)N3CCC(C)CC3C(=O)O)cc2cc1OC (stereo not given)    1 (yes)

// query Identify whether the molecule COCCN(CC(=O)O)C(=O)C(CCCN=C(N)N)NS(=O)(=O)c1cccc2c(OC)cccc12 (stereo not given) records IC50 below 1000 nM.
// result 0 (no)

// query Identify whether the molecule COc1ccc2ccc(S(=O)(=O)NC(CCCN=C(N)N)C(=O)N3CCC(C)CC3C(=O)O)cc2c1 (stereo not given) records IC50 below 1000 nM.
// result 1 (yes)

// query Identify whether the molecule CCCCN(CC(=O)O)C(=O)C(CCCN=C(N)N)NS(=O)(=O)c1cc(OC)c2cc(OC)ccc2c1 (stereo not given) records IC50 below 1000 nM.
// result 0 (no)

###

TARGET DESC: Prothrombin (Bos taurus, UniProt P00735)
PROTOCOL NOTES: Concentration at which the clotting time was prolonged by twice that of the control by inhibiting thrombin
CONDITION SUMMARY: read-out: I50
Quick list: pIC50 per entry.
Scale: pIC50 equals -log10([C]), with [C] in mol/L.

Here is how some molecules turned out for pIC50.
N=C(N)NCCCC(NS(=O)(=O)c1cccc2ccccc12)C(=O)N(CC(=O)O)CC1CCCO1 (centres undefined)    4.52
CCCCN(CC(=O)O)C(=O)C(CCCN=C(N)N)NS(=O)(=O)c1ccc2cc(OC)ccc2c1 (centres undefined)    6.30
CCOc1cc2ccc(S(=O)(=O)NC(CCCN=C(N)N)C(=O)N3CCC(C)CC3C(=O)O)cc2cc1OCC (centres undefined)    5.40
Cc1cc2ccc(S(=O)(=O)NC(CCCN=C(N)N)C(=O)N(CC(=O)O)CC3CCCO3)cc2cc1C (centres undefined)    5.52
COCCN(CCC(=O)O)C(=O)C(CCCN=C(N)N)NS(=O)(=O)c1ccc2cc(OC)c(OC)cc2c1 (centres undefined)    5.43

// query Give pIC50 for the following molecule: CCSCCN(CC(=O)O)C(=O)C(CCCN=C(N)N)NS(=O)(=O)c1ccc2cc(OC)c(OC)cc2c1 (centres undefined)
// result 5.30

// query Give pIC50 for the following molecule: COCCN(CC(=O)O)C(=O)C(CCCN=C(N)N)NS(=O)(=O)c1cc(OC)c2cc(OC)ccc2c1 (centres undefined)
// result 5.40

###

TARGET DESC: Prothrombin (Bos taurus, UniProt P00735)
PROTOCOL NOTES: Concentration at which the clotting time was prolonged by twice that of the control by inhibiting thrombin
CONDITION SUMMARY: read-out: I50
Quick list: pIC50 per entry.
Scale: pIC50 equals -log10([C]), with [C] in mol/L.

Here is how some molecules turned out for pIC50.
COCCN(CC(=O)O)C(=O)C(CCCN=C(N)N)NS(=O)(=O)c1ccc2ccc(C)cc2c1 (stereo not given)    6.46
COc1ccc2ccc(S(=O)(=O)NC(CCCN=C(N)N)C(=O)N3CCCCC3C(=O)O)cc2c1 (stereo not given)    5.30
COc1cc2ccc(S(=O)(=O)NC(CCCN=C(N)N)C(=O)N(CC(=O)O)Cc3ccccc3)cc2cc1OC (stereo not given)    5.60
COc1cc2ccc(S(=O)(=O)NC(CCCN=C(N)N)C(=O)N(CC(=O)O)CC(C)C)cc2cc1OC (stereo not given)    5.70

// query Give pIC50 for the following molecule: CC1CCN(C(=O)C(CCCN=C(N)N)NS(=O)(=O)c2cccc3c2CCCC3)C(C(=O)O)C1 (stereo not given)
// result 6.22

###

TARGET DESC: Prothrombin (Bos taurus, UniProt P00735)
PROTOCOL NOTES: Concentration at which the clotting time was prolonged by twice that of the control by inhibiting thrombin
CONDITION SUMMARY: read-out: I50
PROPERTY NAME: IC50 (nM)
Record the value in nM, omitting the unit from your answer.

Here is how some molecules turned out for IC50.
COCCN(CC(=O)O)C(=O)C(CCCN=C(N)N)NS(=O)(=O)c1ccc2cc(OC)c(OC)cc2c1 (stereo not drawn)    300
CCC1CCN(C(=O)C(CCCN=C(N)N)NS(=O)(=O)c2ccc3ccc(OC)cc3c2)C(C(=O)O)C1 (stereo not drawn)    100
COc1ccc2cc(S(=O)(=O)NC(CCCN=C(N)N)C(=O)N3CCC(C)CC3C(=O)O)cc(OC)c2c1 (stereo not drawn)    340
CCCCN(CC(=O)O)C(=O)C(CCCN=C(N)N)NS(=O)(=O)c1ccc2ccc(C)cc2c1 (stereo not drawn)    300
COc1cc2ccc(S(=O)(=O)NC(CCCN=C(N)N)C(=O)N(CC(=O)O)C3CCCCCC3)cc2cc1OC (stereo not drawn)    15000

// query Identify measured IC50 obtained with Prothrombin (Bos taurus, UniProt P00735) for CCCCCCN(CC(=O)O)C(=O)C(CCCN=C(N)N)NS(=O)(=O)c1ccc2cc(OC)c(OC)cc2c1 (stereo not drawn) .
// result 150

// query Identify measured IC50 obtained with Prothrombin (Bos taurus, UniProt P00735) for COc1cc2ccc(S(=O)(=O)NC(CCCN=C(N)N)C(=O)N(CC(=O)O)CC3CCCCC3)cc2cc1OC (stereo not drawn) .
// result 15000

// query Identify measured IC50 obtained with Prothrombin (Bos taurus, UniProt P00735) for COc1cc2ccc(S(=O)(=O)NC(CCCN=C(N)N)C(=O)N3CCC(C(=O)O)CC3)cc2cc1OC (stereo not drawn) .
// result 150000

###

TARGET DESC: Prothrombin (Bos taurus)
PROTOCOL NOTES: Concentration at which the clotting time was prolonged by twice that of the control by inhibiting thrombin
Type: functional
CONDITION SUMMARY: read-out: I50
Quick list: IC50 per entry.
Record the value in µM, omitting the unit from your answer.

// query Give IC50 for the following compound: COc1cc2ccc(S(=O)(=O)NC(CCCN=C(N)N)C(=O)N3Cc4ccccc4C3C(=O)O)cc2cc1OC (centres undefined)
// result 1.5
